Target: KRAS G12V (Homo sapiens, UniProt P01116+P62937, G12V)
Sequence (P01116 1-169 isoform P01116-2 G12V limits assumed, one chain of several): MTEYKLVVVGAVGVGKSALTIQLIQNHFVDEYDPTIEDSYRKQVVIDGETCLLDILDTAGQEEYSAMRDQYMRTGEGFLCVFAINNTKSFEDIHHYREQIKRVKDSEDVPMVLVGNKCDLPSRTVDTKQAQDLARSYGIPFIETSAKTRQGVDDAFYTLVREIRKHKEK
Test: Ras-Raf disruption / FRET / MOA assay (BRAF RBD)
Format: biochemical
Conditions: KRAS G12V FRET data IC50, Ras-Raf disruption, with Cyclophilin A
parameter.measured: IC50

Please review the entries below; each comes with its answer.
{"molecule": "CCN1C[C@@H]1C(=O)N(C)CC(=O)N(C)[C@H](C(=O)N[C@H]1Cc2cc(O)cc(c2)-c2ccc3c(c2)c(c(-c2cccnc2[C@H](C)OC)n3CC)CC(C)(C)COC(=O)[C@@H]2CCCN(N2)C1=O)C1CCCC1 (some centres unmarked)", "parameter.measured": "IC50", "measured.result": "10 to 100 nM"}
{"molecule": "CCn1c(-c2cccnc2[C@H](C)OC)c2c3cc(ccc31)-c1cc(O)cc(c1)C[C@H](NC(=O)[C@H](C(C)C)N(C)C(=O)CN(C)C(=O)[C@@H]1CN1CCCOC(C)=O)C(=O)N1CCC[C@H](N1)C(=O)OCC(C)(C)C2 (some centres unmarked)", "parameter.measured": "IC50", "measured.result": "10 to 100 nM"}

For the next question, use this molecule.
Param item = CCn1c(-c2cccnc2[C@H](C)OC)c2c3cc(ccc31)-c1cc(O)cc(c1)C[C@H](NC(=O)[C@H](C1CCCC1)N(C)C(=O)CN(C)C(=O)[C@@H]1N[C@@H]1C1(C#N)CC1)C(=O)N1CCC[C@H](N1)C(=O)OCC(C)(C)C2 (single isomer, unassigned) ; retrieve measured IC50.
100 to 1000 nM

---

Biological target: KRAS G13D (Homo sapiens, UniProt P01116+P62937, G13D)
Sequence (P01116 1-169 isoform P01116-2 G13D limits assumed): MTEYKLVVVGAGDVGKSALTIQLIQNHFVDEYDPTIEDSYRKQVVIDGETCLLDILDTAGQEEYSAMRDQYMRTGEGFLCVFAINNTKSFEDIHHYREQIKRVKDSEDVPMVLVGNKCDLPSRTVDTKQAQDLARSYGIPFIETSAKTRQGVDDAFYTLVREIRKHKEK
Sequence (P62937 whole entry): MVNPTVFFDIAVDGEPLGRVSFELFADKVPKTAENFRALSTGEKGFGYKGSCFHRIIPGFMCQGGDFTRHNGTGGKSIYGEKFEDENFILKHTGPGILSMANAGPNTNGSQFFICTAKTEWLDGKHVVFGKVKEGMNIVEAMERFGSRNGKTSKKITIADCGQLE
Assay: Ras-Raf disruption / FRET / MOA assay (BRAF RBD)
Assay type: biochemical
Settings: Ras-Raf disruption, with Cyclophilin A; read-out: KRAS G13D FRET data IC50
parameter.measured: IC50

Please review the entries below; each comes with its answer.
{"compound": "CCn1c(-c2cnccc2COC)c2c3cc(ccc31)-c1cccc(c1)C[C@H](NC(=O)[C@H](C(C)C)N(C)C(=O)C1CCC(N=C=Nc3ccc(OC)cc3)C1)C(=O)N1CCC[C@H](N1)C(=O)OCC(C)(C)C2 (stereo partly shown) [71 A and B]", "system.tested": "KRAS G13D (Homo sapiens, UniProt P01116+P62937, G13D)", "measured.result": "> 10000 nM"}
{"compound": "CCn1c(-c2cccnc2[C@H](C)OC)c2c3cc(ccc31)-c1csc(n1)C[C@H](NC(=O)[C@H](C(C)C)N(C)C(=O)N1CCN(C(=O)[C@@H]3CN3)C[C@H]1C)C(=O)N1CCC[C@H](N1)C(=O)OCC(C)(C)C2 [Example 302]", "system.tested": "KRAS G13D (Homo sapiens, UniProt P01116+P62937, G13D)", "measured.result": "100 to 1000 nM"}
{"compound": "CCn1c(-c2cccnc2[C@H](C)OC)c2c3cc(ccc31)-c1cc(O)cc(c1)C[C@H](NC(=O)[C@H](C(C)C)N1CC[C@]3(CCN(C(=O)[C@H]4CN4)C3)C1=O)C(=O)N1CCC[C@H](N1)C(=O)OCC(C)(C)C2 [Example 146]", "system.tested": "KRAS G13D (Homo sapiens, UniProt P01116+P62937, G13D)", "measured.result": "100 to 1000 nM"}

For the next question, use this compound.
Provide the documented IC50 with KRAS G13D (Homo sapiens, UniProt P01116+P62937, G13D) as the system for CCn1c(-c2cccnc2[C@H](C)OC)c2c3cc(ccc31)-c1cccc(c1)C[C@H](NC(=O)[C@H](C(C)C)N(C)C(=O)[C@H]1C[C@H](N=C=NCCOC)C1)C(=O)N1CCC[C@H](N1)C(=O)OCC(C)(C)C2 [Example 78]
> 10000 nM

---

# Lookup of reported IC50 keyed by entry
Target: KRAS G12D (Homo sapiens, UniProt P01116+P62937, G12D)
Sequence (P01116 1-169 isoform P01116-2 G12D limits assumed, one chain of several): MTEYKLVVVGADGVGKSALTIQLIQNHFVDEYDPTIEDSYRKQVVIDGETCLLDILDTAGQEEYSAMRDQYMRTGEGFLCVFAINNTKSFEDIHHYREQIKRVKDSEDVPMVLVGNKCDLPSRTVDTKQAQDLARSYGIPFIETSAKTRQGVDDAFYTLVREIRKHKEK
Assay: Disruption of BRAF RBD interaction with Ras (FRET / MOA assay, with Cyclophilin A)
Type: biochemical
Conditions: read-out: KRAS G12D FRET data, IC50

{"compound": "CCn1c(-c2cccnc2[C@H](C)OC)c2c3cc(ccc31)-c1csc(n1)C[C@H](NC(=O)[C@H](C(C)C)N(C)C(=O)N1CCC3(CN(C)C3)C1)C(=O)N1CCC[C@H](N1)C(=O)OCC(C)(C)C2 (atropisomer, axis not shown)", "system.tested": "KRAS G12D (Homo sapiens, UniProt P01116+P62937, G12D)", "IC50": "100 to 1000 nM"}
{"compound": "CCn1c(-c2cccnc2[C@H](C)OC)c2c3cc(ccc31)-c1csc(n1)C[C@H](NC(=O)[C@H](C(C)C)N(C)C(=O)N1C[C@@H]3CN(C)C[C@@H]31)C(=O)N1CCC[C@H](N1)C(=O)OCC(C)(C)C2 (atropisomer, axis not shown)", "system.tested": "KRAS G12D (Homo sapiens, UniProt P01116+P62937, G12D)", "IC50": "> 10000 nM"}
{"compound": "CCn1c(-c2cccnc2[C@H](C)OC)c2c3cc(ccc31)-c1csc(n1)C[C@H](NC(=O)[C@H]1C[C@@H]1C)C(=O)N1CCC[C@H](N1)C(=O)OCC(C)(C)C2", "system.tested": "KRAS G12D (Homo sapiens, UniProt P01116+P62937, G12D)", "IC50": "100 to 1000 nM"}

For the next question, use this compound.
Param item = C=CC(=O)N1CCC(C(=O)N(C)C(C(=O)NC2Cc3nc(cs3)-c3ccc4c(c3)c(c(-c3cccnc3C(C)OC)n4CC)CC(C)(C)COC(=O)C3CCCN(N3)C2=O)C(C)C)C1 (stereo not shown) ; retrieve measured IC50.
> 10000 nM

---

Biological target: KRAS G12C (Homo sapiens, UniProt P01116+P62937, G12C)
Sequence (P01116 1-169 isoform P01116-2 G12C, one chain of several): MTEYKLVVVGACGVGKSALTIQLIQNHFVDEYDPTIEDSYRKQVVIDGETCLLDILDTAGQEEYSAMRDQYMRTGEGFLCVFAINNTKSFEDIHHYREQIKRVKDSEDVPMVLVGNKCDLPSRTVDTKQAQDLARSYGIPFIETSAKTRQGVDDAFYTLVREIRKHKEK
Test: Disruption of BRAF RBD interaction with Ras (FRET / MOA assay, with Cyclophilin A)
Format: biochemical
Conditions: read-out: KRAS G12C FRET data, IC50
parameter.measured: IC50

Please review the entries below; each comes with its answer.
{"molecule": "CCn1c(-c2cccnc2[C@H](C)OC)c2c3cc(ccc31)-c1csc(n1)C[C@H](NC(=O)[C@H](C(C)C)N(C)C(=O)N1CCC[C@@H](CN(C)C)C1)C(=O)N1CCC[C@H](N1)C(=O)OCC(C)(C)C2", "measured.result": "10 to 100 nM"}
{"molecule": "CCn1c(-c2cccnc2[C@H](C)OC)c2c3cc(ccc31)-c1csc(n1)C[C@H](NC(=O)[C@H](C(C)C)N(C)C(=O)N(C)C1CCC1)C(=O)N1CCC[C@H](N1)C(=O)OCC(C)(C)C2 (atropisomer, axis not shown)", "measured.result": "10 to 100 nM"}
{"molecule": "CCn1c(-c2cnccc2COC)c2c3cc(ccc31)-c1cc(O)cc(c1)C[C@H](NC(=O)[C@H](C(C)C)N(C)C(=O)c1ncco1)C(=O)N1CCC[C@H](N1)C(=O)OCC(C)(C)C2", "measured.result": "100 to 1000 nM"}

For the next question, use this molecule.
Param item = CCn1c(-c2cccnc2[C@H](C)OC)c2c3cc(ccc31)-c1csc(n1)C[C@H](NC(=O)[C@H](C(C)C)N(C)C(=O)N1CCC13CCOCC3)C(=O)N1CCC[C@H](N1)C(=O)OCC(C)(C)C2 (atropisomer, axis not shown) ; retrieve measured IC50.
10 to 100 nM

---

Target: KRAS G12V (Homo sapiens, UniProt P01116+P62937, G12V)
Assay: Disruption of BRAF RBD interaction with Ras (FRET / MOA assay, with Cyclophilin A)
Format: biochemical
Details: KRAS G12V; read-out: KRAS G12V FRET data IC50
parameter.measured: IC50

Param item = CCn1c(-c2cccnc2[C@H](C)OC)c2c3cc(ccc31)-c1cc(O)cc(c1)C[C@H](NC(=O)[C@H](C(C)C)N(C)C(=O)C1(F)CC1)C(=O)N1CCC[C@H](N1)C(=O)OCC(C)(C)C2 [Example A165] ; retrieve measured IC50.
10 to 100 nM

How about this compound: CCn1c(-c2cccnc2[C@H](C)OC)c2c3cc(ccc31)-c1cc(O)cc(c1)C[C@H](NC(=O)[C@H](C(C)C)N(C)C(=O)C1Cc3cccnc3C1)C(=O)N1CCC[C@H](N1)C(=O)OCC(C)(C)C2 (stereo partly drawn) [Example A250]
10 to 100 nM

How about this compound: CCn1c(-c2cc(N3CCN(C)CC3)cnc2[C@H](C)OC)c2c3cc(ccc31)-c1csc(n1)C[C@H](NC(=O)[C@H](C(C)C)N(C)C(=O)N1CC(N(C)C)C1)C(=O)N1CCC[C@H](N1)C(=O)OCC(C)(C)C2 (atropisomer, axis not shown) [Example A477]
10 to 100 nM

How about this compound: CCn1c(-c2cnccc2[C@H](C)OC)c2c3cc(ccc31)-c1cc(O)cc(c1)C[C@H](NC(=O)[C@H](C(C)C)N(C)C(C)=O)C(=O)N1CCC[C@H](N1)C(=O)OCC(C)(C)C2 [Example A21]
100 to 1000 nM

How about this compound: CCn1c(-c2cccnc2[C@H](C)OC)c2c3cc(ccc31)-c1csc(n1)C[C@H](NC(=O)[C@@H]1CCCO1)C(=O)N1CCC[C@H](N1)C(=O)OCC(C)(C)C2 [Example A331]
100 to 1000 nM

How about this compound: CCn1c(-c2cccnc2[C@H](C)OC)c2c3cc(ccc31)-c1csc(n1)C[C@H](NC(=O)[C@H](C(C)C)N(C)C(=O)N(C)CC(C)C)C(=O)N1CCC[C@H](N1)C(=O)OCC(C)(C)C2 [Example A332]
100 to 1000 nM

How about this compound: CCn1c(-c2cccnc2[C@H](C)OC)c2c3cc(ccc31)-c1cc(O)cc(c1)C[C@H](NC(=O)[C@H](C(C)C)N(C)C(=O)C1(CN)CC1)C(=O)N1CCC[C@H](N1)C(=O)OCC(C)(C)C2 [Example A139]
10 to 100 nM

How about this compound: C=CC(=O)N1CC[C@H](C(=O)N(C)[C@H](C(=O)N[C@H]2Cc3cc(O)cc(c3)-c3ccc4c(c3)c(c(-c3ccc(CN5CCCC5)cc3)n4CC)CC(C)(C)COC(=O)[C@@H]3CCCN(N3)C2=O)C(C)C)C1 [Example A010]
1000 to 10000 nM

How about this compound: CCn1c(-c2cccnc2[C@H](C)OC)c2c3cc(ccc31)-c1csc(n1)C[C@H](NC(=O)[C@H](C(C)C)N(C)C(=O)N1CC3(CC(N4CCOCC4)C3)C1)C(=O)N1CCC[C@H](N1)C(=O)OCC(C)(C)C2 (atropisomer, axis not shown) [Example A486]
100 to 1000 nM
